- run_description: mRNA encapsulation efficiency of lipid nanoparticles
- Format: physicochemical
- condition_notes: LNP with cationic lipid CL-D
assay_endpoint: EE (%)
Write the number in % without appending the unit.

Example results:
>  <compound>
CCCCCCCCOC(=O)CCCCCCCC(=O)OCC(COP(=O)(O)OCCN(C)C)OC(=O)CCCCCCCC(=O)OCCCCCCCC (stereo not shown)

>  <scale_unit>
%

>  <EE>
85

$$$$
>  <compound>
CCCCCCCCC(CCCCC)COC(=O)CCC(=O)OCC(COP(=O)(O)OCCN(C)C)OC(=O)CCC(=O)OCC(CCCCC)CCCCCCCC (stereo not shown)

>  <scale_unit>
%

>  <EE>
93

$$$$
>  <compound>
CC(C)CCCCOC(=O)CCCCCCC(=O)OCC(COP(=O)(O)OCCN(C)C)OC(=O)CCCCCCC(=O)OCCCCC(C)C (stereo not shown)

>  <scale_unit>
%

>  <EE>
28

$$$$

Can you share its EE? I mean this compound: CCCCCCCCC(CCCCCCCC)OC(=O)CCCCCCC(=O)OCC(COP(=O)(O)OCCN)OC(=O)CCCCCCC(=O)OC(CCCCCCCC)CCCCCCCC (stereo not shown)
94

How about this compound: CCCCCCCCC(CCCCCCCC)OC(=O)CCCCCCC(=O)OCC(COP(=O)(O)OCCN(C)C)OC(=O)CCCCCCC(=O)OC(CCCCCCCC)CCCCCCCC (stereo not shown)
92

How about this compound: CCCCCCCCOC(=O)CCCCCCCC(=O)OC(COC(=O)CCCCCCC(=O)OC(CCCCCCCC)CCCCCCCC)COP(=O)(O)OCCN(C)C (stereo not shown)
93

How about this compound: CC(C)CCCCOC(=O)CCCCCCC(=O)OCC(COP(=O)(O)OCCN)OC(=O)CCCCCCC(=O)OCCCCC(C)C (stereo not shown)
78

Values compiled from patent US20260224688A1.
